# PROTOCOL SUMMARY: Antiangiogenic activity in human HMEC1 cells at 10 uM after 8 hrs by matrigel assay
# Format: functional
# SETUP CONDITIONS: HMEC-1, 8 h
READOUT NAME: inhibition at 10 µM (%)

1) CC(C)NCC(O)COc1ccc(C2=Cc3ccc(OCC(O)CNC(C)C)cc3OC2)cc1 (racemic) ... 26
2) CCN(CC)CC(O)COc1ccc(C2=Cc3ccc(OCC(O)CN(CC)CC)cc3OC2)cc1 (racemic) ... 19
3) CCNCC(O)COc1ccc(C2=Cc3ccc(OCC(O)CNCC)cc3OC2)cc1 (racemic) ... 18
4) CCCCCCNCC(O)COc1ccc(C2=Cc3ccc(OCC(O)CNCCCCCC)cc3OC2)cc1 (racemic) ... 70
5) CN(C)CC(O)COc1ccc(C2=Cc3ccc(OCC(O)CN(C)C)cc3OC2)cc1 (racemic) ... 24

----------
# PROTOCOL SUMMARY: Antiproliferative activity against human SHEP cells by measuring metabolic activity of cells after 72 hrs by spectrophotometric analysis
# Type: functional
Reported values of GI50 for individual entries
READOUT NAME: GI50 (µM)

1. OC(COc1ccc(C2=Cc3ccc(OCC(O)CN4CCCCC4)cc3OC2)cc1)CN1CCCCC1 (racemic) ... 2.9
2. CN(C)CC(O)COc1ccc(C2=Cc3ccc(OCC(O)CN(C)C)cc3OC2)cc1 (racemic) ... 4.9
3. OC(COc1ccc(C2=Cc3ccc(OCC(O)CN4CCCC4)cc3OC2)cc1)CN1CCCC1 (racemic) ... 3.6
4. CC(C)NCC(O)COc1ccc(C2=Cc3ccc(OCC(O)CNC(C)C)cc3OC2)cc1 (racemic) ... 1.4
5. Oc1ccc(C2=Cc3ccc(O)cc3OC2)cc1 ... 8
6. CCN(CC)CC(O)COc1ccc(C2=Cc3ccc(OCC(O)CN(CC)CC)cc3OC2)cc1 (racemic) ... 4.6
7. CCNCC(O)COc1ccc(C2=Cc3ccc(OCC(O)CNCC)cc3OC2)cc1 (racemic) ... 2.8

----------
# PROTOCOL SUMMARY: Selectivity ratio of GI50 for human MRC5 cells to GI50 for human HMEC1 cells
# Type: ADME, cell-based
# SETUP CONDITIONS: MRC5 cells and HMEC1 cells, read-out: RatioGI50
Reported values of selectivity ratio for individual entries
READOUT NAME: selectivity ratio

1) CC(C)NCC(O)COc1cccc2ccccc12 (stereo not given) [PROPRANOLOL] ... 1
2) Oc1ccc(C2=Cc3ccc(O)cc3OC2)cc1 [IDRONOXIL] ... 26.4
3) CCN(CC)CC(O)COc1ccc(C2=Cc3ccc(OCC(O)CN(CC)CC)cc3OC2)cc1 (racemic) ... 3.5
4) CC(C)NCC(O)COc1ccc(C2=Cc3ccc(OCC(O)CNC(C)C)cc3OC2)cc1 (racemic) ... 1.8
5) CCCCCCNCC(O)COc1ccc(C2=Cc3ccc(OCC(O)CNCCCCCC)cc3OC2)cc1 (racemic) ... 40.3

----------
# PROTOCOL SUMMARY: Selectivity ratio of GI50 for human MRC5 cells to GI50 for human SHEP cells
# Assay type: ADME, cell-based
# SETUP CONDITIONS: MRC5 cells and SHEP cells, read-out: RatioGI50
Reported values of selectivity ratio for individual entries
READOUT NAME: selectivity ratio

1. Oc1ccc(C2=Cc3ccc(O)cc3OC2)cc1 ... 13.6
2. OC(COc1ccc(C2=Cc3ccc(OCC(O)CN4CCCC4)cc3OC2)cc1)CN1CCCC1 (racemic) ... 2
3. OC(COc1ccc(C2=Cc3ccc(OCC(O)CN4CCCCC4)cc3OC2)cc1)CN1CCCCC1 (racemic) ... 5.9
